test system: Salmonella choleraesuis; experiment: In vivo protection of mice infected intraperitoneally with Salmonella choleraesuis; details: subcutaneous (SC), multiple dosing, 25 mg./kg., percentage of animals which survive
This section presents compounds with their documented Percentage protection Sal. choleraesuis SC values.
Value type: Percentage protection Sal. choleraesuis SC (%)

>>> print(df.to_string())
                                   compound  result_units  recorded_number
0  CC1(O)OCc2c1[n+]([O-])c1ccccc1[n+]2[O-] (stereo not shown)             %              100
1  CC1(OCc2ccccc2)OCc2c1[n+]([O-])c1ccccc1[n+]2[O-] (stereo not shown)             %               60
2  CCOC1(C)OCc2c1[n+]([O-])c1ccccc1[n+]2[O-] (stereo not shown)             %               50
3  COC1(C)OCc2c1[n+]([O-])c1ccccc1[n+]2[O-] (stereo not shown)             %              100
